test system: K562 CRISPRi cells; experiment: Perturb-seq pooled growth measurement (sgRNA counts, growth phenotype γ, relative activity); type: cell-based, human; details: sequencing read counts; T0 = day two after transduction
Please use met whenever Perturb-seq pooled growth sgRNA counts, T0 is not below 7000, and not met whenever it is.

Consider the following illustrative entries.
RPS14_+_149829238.23-P1P2_02: sgRNA targeting RPS14, GAGGCCCTGGCGCGACAATC, SEQ ID NO: 47 (listed as DNA, chemistry not fully specified) ... met
non-targeting_00001: non-targeting negative control sgRNA, GTGCACCCGGCTAGGACCGG, SEQ ID NO: 161 (listed as DNA, chemistry not fully specified) [reference compound] ... met
HSPA9_−_137911079.23-P1P2_04: sgRNA targeting HSPA9, GGAGCTGCGCAATGCGGTGG, SEQ ID NO: 135 (listed as DNA, chemistry not fully specified) ... not met
CAD_+_27440280.23-P1P2_00: sgRNA targeting CAD, GGCTGGAGAGAAGCCGGGCG, SEQ ID NO: 20 (listed as DNA, chemistry not fully specified) ... met
GNB2L1_+_180670873.23-P1P2_00: sgRNA targeting GNB2L1, GTGCAAGGCGGCGGCAGGAG, SEQ ID NO: 55 (listed as DNA, chemistry not fully specified) ... not met

Request: State whether the measured Perturb-seq pooled growth sgRNA counts, T0 reaches 7000, counting equality as reaching it, for DBR1_+_137893744.23-P1P2_05: sgRNA targeting DBR1, GTTTGCAGGAGTGTACACCC, SEQ ID NO: 81 (listed as DNA, chemistry not fully specified)
Result: not met

Request: Would you say POLR2H_+_184081251.23-P1P2_11: sgRNA targeting POLR2H, GGGGCCACGAGAGCAGCGGA, SEQ ID NO: 115 (listed as DNA, chemistry not fully specified) shows Perturb-seq pooled growth sgRNA counts, T0 at minimum 7000?
Result: not met

Request: Has GINS1_−_25388381.23-P1P2_06: sgRNA targeting GINS1, GGACTAGAACGGAAGGAGTG, SEQ ID NO: 95 (listed as DNA, chemistry not fully specified) a recorded Perturb-seq pooled growth sgRNA counts, T0 greater than or equal to 7000?
Result: met

Request: Would you say POLR2H_+_184081251.23-P1P2_07: sgRNA targeting POLR2H, GGGGCCACGAGTGCAGCAGA, SEQ ID NO: 118 (listed as DNA, chemistry not fully specified) shows Perturb-seq pooled growth sgRNA counts, T0 at minimum 7000?
Result: not met

Request: Entry CAD_+_27440280.23-P1P2_07: sgRNA targeting CAD, GGCTGGAGCGAAGCCGGGCG, SEQ ID NO: 103 (listed as DNA, chemistry not fully specified) : is its Perturb-seq pooled growth sgRNA counts, T0 no less than 7000?
Result: met

Request: Does the substance RPL9_+_39460483.23-P1P2_04: sgRNA targeting RPL9, GGATGTTTCAGTGCTCGTGG, SEQ ID NO: 53 (listed as DNA, chemistry not fully specified) have recorded Perturb-seq pooled growth sgRNA counts, T0 that is 7000 or more?
Result: not met

Request: Check the entry EIF2S1_−_67827080.23-P1P2_06: sgRNA targeting EIF2S1, GAGCGAAGCGCGCGCTGAGG, SEQ ID NO: 137 (listed as DNA, chemistry not fully specified) : does Perturb-seq pooled growth sgRNA counts, T0 equal or exceed 7000?
Result: not met

Request: Entry ATP5E_−_57607036.23-P1P2_14: sgRNA targeting ATP5E, GGTGTCCAGGGGCACTGTGT, SEQ ID NO: 155 (listed as DNA, chemistry not fully specified) : is its Perturb-seq pooled growth sgRNA counts, T0 no less than 7000?
Result: not met

Request: Assess whether reported Perturb-seq pooled growth sgRNA counts, T0 for SEC61A1_−_127771295.23-P1_02: sgRNA targeting SEC61A1, GGCGCTGACGTGTCTCTCGG, SEQ ID NO: 84 (listed as DNA, chemistry not fully specified) sits at 7000 or higher.
Result: met

Request: Assess whether reported Perturb-seq pooled growth sgRNA counts, T0 for GNB2L1_+_180670873.23-P1P2_07: sgRNA targeting GNB2L1, GTGCAAGGCGGGGGCAGGAG, SEQ ID NO: 58 (listed as DNA, chemistry not fully specified) sits at 7000 or higher.
Result: met

Request: Exam item: decide whether the reported Perturb-seq pooled growth sgRNA counts, T0 for GATA1_−_48645022.23-P1P2_04: sgRNA targeting GATA1, GTGAGCTTACCACATCCCCA, SEQ ID NO: 121 (listed as DNA, chemistry not fully specified) is at least 7000.
Result: not met

Request: Given ALDOA_+_30077139.23-P1P2_14: sgRNA targeting ALDOA, GGTCACCAGGACCGCTTCTG, SEQ ID NO: 159 (listed as DNA, chemistry not fully specified) , state whether its Perturb-seq pooled growth sgRNA counts, T0 is at least 7000.
Result: not met

Request: Can GATA1_−_48645022.23-P1P2_12: sgRNA targeting GATA1, GTGAGCTTGCCACATCCGCA, SEQ ID NO: 124 (listed as DNA, chemistry not fully specified) be said to have Perturb-seq pooled growth sgRNA counts, T0 at or above 7000?
Result: not met

Request: Reported Perturb-seq pooled growth sgRNA counts, T0 reaches at least 7000 for DUT_+_48624411.23-P1P2_10: sgRNA targeting DUT, GCGAGCGAGGAGACCAACGG, SEQ ID NO: 114 (listed as DNA, chemistry not fully specified) ?
Result: not met

All figures here come from patent US20220259593A1.
